Assay: Thermal half-life of the Z-isomer (UV/vis, 96-well plate)
Assay type: physicochemical
Settings: 25 °C, 50 µM in HEPES buffer + 0.25% DMSO, pre-irradiated with 340 nm
Numbered stars: 1 amine (or outer) side, 2 acyl side, 3 side chain; on linkers, the order of the positions; unused ones are H or OH. Bridge positions count the residues as written; N and C are the ends. Square brackets hold non-standard residues; d marks the D form. Peptide text beside a SMILES is read from it. AMPB(E) = O=C(c1ccc(/N=N/c2ccc(CN[*:1])cc2)cc1)[*:2]; X1 = O=C([C@H](Cc1ccc(/N=N/c2ccccc2)cc1)N[*:1])[*:2]
reported.endpoint: t1/2 (thermal half-life, Figure S50) (h)

| compound | assay.result |
| --- | --- |
| N=C(N)NCCC[C@H](NC(=O)[C@@H]1CCCN1C(=O)[C@@H]1CSSC[C@H](N)C(=O)N[C@@H](Cc2ccc(O)cc2)C(=O)N[C@@H](Cc2ccc(/N=N/c3ccccc3)cc2)C(=O)N[C@@H](CCC(N)=O)C(=O)N[C@@H](CC(N)=O)C(=O)N1)C(=O)NCC(N)=O [compound 12, [AzbS^3]-VP] | 72 |
| NC(=O)CC[C@@H]1NC(=O)[C@H](Cc2ccccc2)NC(=O)[C@H](Cc2ccc(O)cc2)NC(=O)[C@@H](N)CSSC[C@@H](C(=O)NCc2ccc(/N=N/c3ccc(C(=O)NCC(N)=O)cc3)cc2)NC(=O)[C@H](CC(N)=O)NC1=O [compound 13, [AzbL^7/8]-VP] (H-CYFQNC[AMPB(E)]G-NH2; disulfide 1-6) | 12.4 |
| CC[C@H](C)[C@@H]1NC(=O)[C@H](Cc2ccc(O)cc2)NC(=O)[C@@H](N)CSSC[C@@H](C(=O)N[C@@H](Cc2ccc(/N=N/c3ccccc3)cc2)C(=O)N[C@@H](CC(C)C)C(=O)NCC(N)=O)NC(=O)[C@H](CC(N)=O)NC(=O)[C@H](CCC(N)=O)NC1=O [compound 9, [AzbS^7]-OT] (H-CYIQNC[X1]LG-NH2; disulfide 1-6) | 72 |
| CC[C@H](C)[C@@H]1NC(=O)[C@H](Cc2ccc(/N=N/c3ccccc3)cc2)NC(=O)[C@@H](N)CSSC[C@@H](C(=O)N2CCC[C@H]2C(=O)N[C@@H](CC(C)C)C(=O)NCC(N)=O)NC(=O)[C@H](CC(N)=O)NC(=O)[C@H](CCC(N)=O)NC1=O [compound 8, [AzbS^2]-OT] (H-C[X1]IQNCPLG-NH2; disulfide 1-6) | 132 |
| N=C(N)NCCC[C@H](NC(=O)c1ccc(/N=N/c2ccc(CNC(=O)[C@@H]3CSSC[C@H](N)C(=O)N[C@@H](Cc4ccc(O)cc4)C(=O)N[C@@H](Cc4ccccc4)C(=O)N[C@@H](CCC(N)=O)C(=O)N[C@@H](CC(N)=O)C(=O)N3)cc2)cc1)C(=O)NCC(N)=O [compound 14, [AzbL^7]-VP] (H-CYFQNC[AMPB(E)]RG-NH2; disulfide 1-6) | 33.6 |
| CC[C@H](C)[C@@H]1NC(=O)[C@H](Cc2ccc(O)cc2)NC(=O)[C@@H](N)CSSC[C@@H](C(=O)NCc2ccc(/N=N/c3ccc(C(=O)NCC(N)=O)cc3)cc2)NC(=O)[C@H](CC(N)=O)NC(=O)[C@H](CCC(N)=O)NC1=O [compound 10, [AzbL^7/8]-OT] (H-CYIQNC[AMPB(E)]G-NH2; disulfide 1-6) | 40.8 |
| CC[C@H](C)[C@@H]1NC(=O)[C@H](Cc2ccc(O)cc2)NC(=O)[C@@H](N)CSSC[C@@H](C(=O)NCc2ccc(/N=N/c3ccc(C(=O)N[C@@H](CC(C)C)C(=O)NCC(N)=O)cc3)cc2)NC(=O)[C@H](CC(N)=O)NC(=O)[C@H](CCC(N)=O)NC1=O [compound 11, [AzbL^7]-OT] (H-CYIQNC[AMPB(E)]LG-NH2; disulfide 1-6) | 28.8 |
